- System: ATP;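 note: ATP exposure 15 min at 22 °C before imaging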
- assayProcedure: switch fluorescence ratio, 500 uM ATP over buffer (Cy3 cluster intensity, sum of 5 cycles each) (fold (ratio)); higher = stronger signal-on switching upon ATP binding; sequences stand for … in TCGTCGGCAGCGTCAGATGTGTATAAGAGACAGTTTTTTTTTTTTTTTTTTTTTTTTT…TC
- cond: aptamer strand: ATP DNA aptamer (quencher-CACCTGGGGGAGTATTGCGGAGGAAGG + anchor), 100 nM annealed; ATP concentration: 500 uM
observedProperty: switch fluorescence ratio
// return just the number, without any unit appended

Sample records with switch fluorescence ratio:
>  <primarySequence>
CAAGTTGAAA

>  <assayTarget>
ATP;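 note: ATP exposure 15 min at 22 °C before imaging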

>  <switch fluorescence ratio>
0.969

$$$$
>  <primarySequence>
TTTCGTTGGT

>  <assayTarget>
ATP;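 note: ATP exposure 15 min at 22 °C before imaging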

>  <switch fluorescence ratio>
0.982

$$$$
>  <primarySequence>
GATATTTCGG

>  <assayTarget>
ATP;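 note: ATP exposure 15 min at 22 °C before imaging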

>  <switch fluorescence ratio>
1.01

$$$$
>  <primarySequence>
CCAATTTTAA

>  <assayTarget>
ATP;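 note: ATP exposure 15 min at 22 °C before imaging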

>  <switch fluorescence ratio>
0.985

$$$$

*Q* Entry CAGCGAGGAA has what switch fluorescence ratio?
*A* 1.01

*Q* So what's the measured switch fluorescence ratio for this one? TTCCAAGGGA
*A* 1

*Q* Entry ATTGGTGTAA has what switch fluorescence ratio?
*A* 1.01

*Q* Could you share which switch fluorescence ratio value was measured for GGAGGCCCCA ?
*A* 0.996

---

- System: ATP;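 note: ATP exposure 15 min at 22 °C before imaging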
- assayProcedure: switch fluorescence ratio, 500 uM ATP over buffer (Cy3 cluster intensity, sum of 5 cycles each) (fold (ratio)); higher = stronger signal-on switching upon ATP binding; sequences stand for … in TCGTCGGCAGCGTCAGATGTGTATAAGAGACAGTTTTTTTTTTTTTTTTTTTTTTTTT…TC
- cond: aptamer strand: ATP DNA aptamer (quencher-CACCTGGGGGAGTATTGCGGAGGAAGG + anchor), 100 nM annealed; ATP concentration: 500 uM
observedProperty: switch fluorescence ratio

Worked set:
>  <primarySequence>
CTTAGTAGT

>  <switch fluorescence ratio>
0.973

$$$$
>  <primarySequence>
TGGGGGCAAA

>  <switch fluorescence ratio>
0.987

$$$$
>  <primarySequence>
ATTCAGTTGG

>  <switch fluorescence ratio>
0.978

$$$$

*Q* Any idea what switch fluorescence ratio was measured for TGGTGCCGGT ?
*A* 1.01

*Q* Could you share which switch fluorescence ratio value was measured for TTGGTACGGA ?
*A* 0.986

*Q* Consider the sequence shown here: GGTTACCGGC What is its recorded switch fluorescence ratio?
*A* 0.977

---

- Test system: ATP;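 note: ATP exposure 15 min at 22 °C before imaging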
- assayProcedure: switch fluorescence ratio, 500 uM ATP over buffer (Cy3 cluster intensity, sum of 5 cycles each) (fold (ratio)); higher = stronger signal-on switching upon ATP binding; sequences stand for … in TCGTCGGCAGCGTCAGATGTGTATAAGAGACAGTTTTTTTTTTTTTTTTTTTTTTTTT…TC
- cond: aptamer strand: ATP DNA aptamer (quencher-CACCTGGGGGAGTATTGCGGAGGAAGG + anchor), 100 nM annealed; ATP concentration: 500 uM
observedProperty: switch fluorescence ratio
// return a plain number; no unit text

Observe how each entry below is paired with its result.
>  <primarySequence>
CCTGGGTCTA

>  <assayTarget>
ATP;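 note: ATP exposure 15 min at 22 °C before imaging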

>  <switch fluorescence ratio>
1.03

$$$$
>  <primarySequence>
CTCCTAGTCA

>  <assayTarget>
ATP;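 note: ATP exposure 15 min at 22 °C before imaging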

>  <switch fluorescence ratio>
1.05

$$$$
>  <primarySequence>
GGCCGAGAGG

>  <assayTarget>
ATP;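 note: ATP exposure 15 min at 22 °C before imaging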

>  <switch fluorescence ratio>
0.993

$$$$

Now for a further sequence.
*Q* Name the recorded switch fluorescence ratio for TTGGATCAAC .
*A* 1.04

---

Parameter: switch fluorescence ratio. Scope: all listed entries.
- Test system: ATP;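 note: ATP exposure 15 min at 22 °C before imaging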
- assayProcedure: switch fluorescence ratio, 500 uM ATP over buffer (Cy3 cluster intensity, sum of 5 cycles each) (fold (ratio)); higher = stronger signal-on switching upon ATP binding; sequences stand for … in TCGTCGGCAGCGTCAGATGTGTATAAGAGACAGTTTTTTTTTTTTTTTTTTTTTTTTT…TC
- cond: aptamer strand: ATP DNA aptamer (quencher-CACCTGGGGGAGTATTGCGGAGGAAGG + anchor), 100 nM annealed; ATP concentration: 500 uM
Write the number on its own, no unit after it.

Guide cases for switch fluorescence ratio, answers given:
>  <primarySequence>
CGGGGAGTGT

>  <switch fluorescence ratio>
1

$$$$
>  <primarySequence>
AAGCGTTTTG

>  <switch fluorescence ratio>
0.988

$$$$
>  <primarySequence>
ATTGTATTTT

>  <switch fluorescence ratio>
0.979

$$$$

*Q* GET /values?readout=switch fluorescence ratio&system=ATP&item= AATTTGGGGT;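 note: ATP exposure 15 min at 22 °C before imaging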
*A* 0.995

*Q* Write down the reported switch fluorescence ratio of GGTTTTGGCT , test system: ATP.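 Note: ATP exposure 15 min at 22 °C before imaging.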
*A* 0.991

*Q* Query switch fluorescence ratio on ATP for AGATTGATGG
*A* 0.985

*Q* Give ATP switch fluorescence ratio for TAGGGGACGT
*A* 0.992

*Q* # query: switch fluorescence ratio | item AGGATTAGGG | system: ATP;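 note: ATP exposure 15 min at 22 °C before imaging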
*A* 1

*Q* Observed switch fluorescence ratio on ATP for AAGTGGGGGG , please.
*A* 1

*Q* Query for ATP: what switch fluorescence ratio does the record show for TGGTAACGCG ?
*A* 1

---

- Test system: ATP;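 note: ATP exposure 15 min at 22 °C before imaging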
- assayProcedure: switch fluorescence ratio, 500 uM ATP over buffer (Cy3 cluster intensity, sum of 5 cycles each) (fold (ratio)); higher = stronger signal-on switching upon ATP binding; sequences stand for … in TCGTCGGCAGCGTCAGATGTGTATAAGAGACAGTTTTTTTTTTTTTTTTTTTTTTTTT…TC
- cond: aptamer strand: ATP DNA aptamer (quencher-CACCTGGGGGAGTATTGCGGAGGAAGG + anchor), 100 nM annealed; ATP concentration: 500 uM
observedProperty: switch fluorescence ratio
Give a plain numeric answer without units written out.

Completed entries (count: 3):
>  <primarySequence>
ATGATGTTGA

>  <switch fluorescence ratio>
1

$$$$
>  <primarySequence>
ACACCTCATA

>  <switch fluorescence ratio>
1.1

$$$$
>  <primarySequence>
TTACGGGTGC

>  <switch fluorescence ratio>
1.19

$$$$

*Q* What does the record list as switch fluorescence ratio for TCAGGGACCG ?
*A* 1.03

*Q* // switch fluorescence ratio lookup, key: GGGGGGGACC
*A* 0.999

*Q* Please look up its switch fluorescence ratio: AGTTTGAAAG
*A* 1.01

*Q* Need switch fluorescence ratio of AATCAATTGT , thanks.
*A* 0.978

*Q* Would you kindly share the measured switch fluorescence ratio for TAAAAAAGAT ?
*A* 0.978

*Q* Which switch fluorescence ratio value is on record for CGGGTAGGCT ?
*A* 1.02

*Q* Look up switch fluorescence ratio for this sequence: AACTCGTTCT
*A* 1.01

*Q* What value of switch fluorescence ratio has been reported for the following sequence? GTATGGGGCG
*A* 1.01

*Q* So what's the measured switch fluorescence ratio for this one? GAAGATAGGT
*A* 0.993

*Q* Query: switch fluorescence ratio; subject: GTGGCTGCGT
*A* 0.978

*Q* Query (sequence): CGTTTAGTGG ; field requested: switch fluorescence ratio
*A* 0.978

---

Below: a set of entries, each annotated with reported switch fluorescence ratio.
- Test system: ATP;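 note: ATP exposure 15 min at 22 °C before imaging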
- assayProcedure: switch fluorescence ratio, 500 uM ATP over buffer (Cy3 cluster intensity, sum of 5 cycles each) (fold (ratio)); higher = stronger signal-on switching upon ATP binding; sequences stand for … in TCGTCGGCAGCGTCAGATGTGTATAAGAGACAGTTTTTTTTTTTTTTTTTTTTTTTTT…TC
- cond: aptamer strand: ATP DNA aptamer (quencher-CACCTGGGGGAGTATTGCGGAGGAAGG + anchor), 100 nM annealed; ATP concentration: 500 uM
Respond numerically, and do not add a unit to the figure.

Here is how some sequences turned out for switch fluorescence ratio.
>  <primarySequence>
TAGACTTTAG

>  <switch fluorescence ratio>
1.03

$$$$
>  <primarySequence>
GCAAGCTAGG

>  <switch fluorescence ratio>
1.03

$$$$
>  <primarySequence>
TTGGGAGGCG

>  <switch fluorescence ratio>
0.97

$$$$
>  <primarySequence>
TTCACATAGC

>  <switch fluorescence ratio>
1.05

$$$$

*Q* GET /values?readout=switch fluorescence ratio&item= CCAGTTATGG
*A* 0.999

*Q* Any idea what switch fluorescence ratio was measured for AGTTTTAGCT ?
*A* 0.984

*Q* Entry under review: ATGAGGGGCG . Reported switch fluorescence ratio?
*A* 1.02

*Q* Quick check: switch fluorescence ratio of TGAGAGCTGG ?
*A* 0.985

*Q* // lookup switch fluorescence ratio for GATTGTGTTA
*A* 1.01

---

- Test system: ATP;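 note: ATP exposure 15 min at 22 °C before imaging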
- assayProcedure: switch fluorescence ratio, 500 uM ATP over buffer (Cy3 cluster intensity, sum of 5 cycles each) (fold (ratio)); higher = stronger signal-on switching upon ATP binding; sequences stand for … in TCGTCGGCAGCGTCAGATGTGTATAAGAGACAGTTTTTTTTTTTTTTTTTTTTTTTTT…TC
- cond: aptamer strand: ATP DNA aptamer (quencher-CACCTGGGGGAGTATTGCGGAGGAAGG + anchor), 100 nM annealed; ATP concentration: 500 uM
observedProperty: switch fluorescence ratio

>  <primarySequence>
TTTGTGTTAG

>  <switch fluorescence ratio>
0.998

$$$$

*Q* Using the record for CTGGTCGGGT , report its switch fluorescence ratio.
*A* 1

*Q* Look at this sequence and give its reported switch fluorescence ratio. TTGGTGTGGC
*A* 0.997

*Q* Given TATAATAGAA , state its recorded switch fluorescence ratio.
*A* 0.983

*Q* Item TCAAATCGTT has what recorded switch fluorescence ratio?
*A* 0.992

*Q* For the sequence shown here, GAGGTATGTT , give the reported switch fluorescence ratio.
*A* 0.999

*Q* What does the record list as switch fluorescence ratio for TTCAAATCGA ?
*A* 1

*Q* Fill in the blank: the reported switch fluorescence ratio of GCATGCTTAA is ____.
*A* 0.988

*Q* I am curious: what switch fluorescence ratio value has been reported for TATTGAGAAG ?
*A* 0.987

*Q* Entry AAGGAAGGGT : reported switch fluorescence ratio = ?
*A* 1.02

*Q* # query: switch fluorescence ratio of entry TAAGATATTA
*A* 0.998

*Q* Give its switch fluorescence ratio value. Item: GGGTTGGTGG
*A* 0.992

*Q* Dear colleague, I am looking for the recorded switch fluorescence ratio of the following sequence: TCGTATTGTG
*A* 0.975
